Target: T1, cyno FcRn/b2M (cyno, UniProt Q8SPV9 24-297; Q8SPW0 21-119, biotinylated)
T1 construct: bought recombinant biotinylated protein (Immunitrack ITF05 or ACRO FCM-C82W5); also called cFcRn; cFcRn/cb2M
T1 sequence (Q8SPV9 24-297 limits assumed, chain 1 of 2): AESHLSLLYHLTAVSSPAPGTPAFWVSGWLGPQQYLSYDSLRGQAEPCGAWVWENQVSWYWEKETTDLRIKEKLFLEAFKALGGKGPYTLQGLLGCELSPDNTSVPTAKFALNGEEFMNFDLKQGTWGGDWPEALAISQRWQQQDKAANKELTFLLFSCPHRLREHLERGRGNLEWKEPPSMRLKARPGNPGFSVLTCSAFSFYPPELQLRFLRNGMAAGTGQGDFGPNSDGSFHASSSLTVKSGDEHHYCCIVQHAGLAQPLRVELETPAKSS
T1 sequence (Q8SPW0 21-119 limits assumed, chain 2 of 2): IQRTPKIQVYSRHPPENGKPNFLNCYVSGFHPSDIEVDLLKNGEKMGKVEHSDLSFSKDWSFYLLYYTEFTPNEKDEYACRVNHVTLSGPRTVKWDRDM
Experiment: SPR pH 6.0;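 note: surface plasmon resonance kinetics at 25 °C, diluted periplasmic extracts injected over immobilized ligand surfaces, 120 s association then 600–3600 s dissociation, running buffer containing 150 mM NaCl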
measured_metric: koff (s⁻¹)

[
  {
    "binder": "T0263018B11 G26E (VHH, name in Kabat numbering, FLAG3-His6 tagged) VHH: EVQLVESGGGVVQPGGSLRLSCAASEFTFSSYAMYWVRQAPGKGLEWVSAISSGGGSTDYADSVKGRFTISRDNSKNTLYLQMNSLRPEDTALYYCAADTLYTSLTWYSYWGQGTLVTVSS",
    "koff (s⁻¹)": 0.00081
  },
  {
    "binder": "T0263018B11 T28P (VHH, name in Kabat numbering, FLAG3-His6 tagged) VHH: EVQLVESGGGVVQPGGSLRLSCAASGFPFSSYAMYWVRQAPGKGLEWVSAISSGGGSTDYADSVKGRFTISRDNSKNTLYLQMNSLRPEDTALYYCAADTLYTSLTWYSYWGQGTLVTVSS",
    "koff (s⁻¹)": 0.0012
  },
  {
    "binder": "T0263018B11 A33G (VHH, name in Kabat numbering, FLAG3-His6 tagged) VHH: EVQLVESGGGVVQPGGSLRLSCAASGFTFSSYGMYWVRQAPGKGLEWVSAISSGGGSTDYADSVKGRFTISRDNSKNTLYLQMNSLRPEDTALYYCAADTLYTSLTWYSYWGQGTLVTVSS",
    "koff (s⁻¹)": 0.0011
  }
]
